Test: binders of probe aFGF10 on microarray, primary screen, stem cell growth factor project, biochemical, small-molecule microarray, fluorescence 635/667 (AID 1071);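 further: score merges 667 nm spot intensity and signal to noise from triplicate slides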
Settings: higher = more signal
Please respond with reported composite z-score for every item in the list.
One number for each entry.

The following molecules have reported results that may help.
• CCN1C(=O)[C@H]2[C@H]3[C@H](O)[C@H](O)CC(=O)[C@H]3CC[C@H]2C1=O = 0.39
• C#CCCCON=C1C[C@@H](O)[C@@H](O)[C@@H]2[C@@H]3C(=O)N(C(C)(C)C)C(=O)[C@@H]3CC[C@H]12 = -0.104
• CO[C@H]1COC(=O)[C@@H](C)COC(=O)[C@H](C)NC(=O)CC=C[C@H]1C = 0.222

For each of the molecules below, state composite z-score.
1. COc1cccc([C@H]2Oc3ccc(OC)cc3C(=NOC[C@@H](O)[C@H]3O[C@@H]4OC(C)(C)O[C@@H]4[C@H]3O)[C@@H]2O)c1
2. C#CCCCON=C1[C@H]2CCn3c(=O)n(C)c(=O)n3[C@H]2[C@H](O)[C@@H]2O[C@H]12
3. O=c1n(-c2ccccc2)c(=O)n2n1CC[C@@H]1C(=NOCc3ccccc3)[C@H]3O[C@H]3[C@@H](O)[C@@H]12
4. COC(=O)[C@H](C)NC(=O)CCC1CC(OC(=O)NCc2ccc3c(c2)OCO3)CC2(CCCC(COC(=O)NCC3CCCCC3)O2)O1 (stereo not given in full)

A)
0.289
0.382
0.472
0.847

For each of the molecules below, state composite z-score.
1. C[C@H]1COC(=O)[C@@H]2CCCN2C(=O)[C@@H](C)COC(=O)[C@H](Cc2ccccc2)NC1=O
2. CO[C@H]1COC(=O)[C@@H](Cc2ccccc2)NC(=O)[C@@H](C)COC(=O)CCC[C@@H]1C

A)
1. 0.525
2. 0.286

Memo: COC(=O)CC=C[C@@H](C)[C@@H]1C=C[C@H](O)[C@@H](CO)O1 , reported composite z-score: 0.376

###

Test: PSAC antagonists in infected red cells, primary screen, cell-based, P. falciparum Indochina, OD700, 18 h (AID 1157)
Settings: P. falciparum Indochina infected erythrocytes, osmotic lysis OD700, 18 h; higher = more signal, called active from +8 up or from −8 down
Kind request: treat 0.4 as inclusive, so z-score at 0.4 or higher is fulfilled, anything lower is not fulfilled.

Worked examples follow.
* COc1cccc([C@H]2Oc3ccc(OC)cc3C(=NOC[C@@H](O)[C@H]3O[C@@H]4OC(C)(C)O[C@@H]4[C@H]3O)[C@@H]2O)c1 | fulfilled
* CCc1cc2c(nc1CC)CCN(CCC(C)=NO[C@H](C)c1cn([C@H](CO)Cc3ccccc3)nn1)C2 | fulfilled
* CO[C@H]1COC(=O)[C@@H](C)COC(=O)[C@@H](OCc2ccccc2)C=C[C@@H]1C | not fulfilled
* CCOC(=O)[C@H](CC(C)C)NC(=O)CCC1CC(OC(=O)NCc2cccc3ccccc23)CC2(CCCC(COC(=O)NCCOC)O2)O1 (stereo not given in full) | not fulfilled
* C[C@@H]1CC[C@H]2C(=O)O[C@@H](Cc3ccccc3)CN2[C@H]1c1ccc(Br)cc1 | fulfilled

Q) z-score >= 0.4 for COC(=O)[C@@H]1CC[C@H](C)[C@@H](c2ccc(C)cc2)N1C(=O)c1ccc(C=NO[C@@H](C)c2cn([C@H](CO)Cc3ccccc3)nn2)cc1 ?
A) fulfilled

###

Test system: Noggin (protein binding on small-molecule microarray)
Assay: Noggin binders on small-molecule microarray, primary screen, biochemical, 635/667 nm fluorescence (AID 1095);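 further: score merges 667 nm feature fluorescence with signal to noise over triplicate slides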
Details: 635 nm fluorescence, higher = more signal
Kind request: treat 0.3 as inclusive, so composite z-score at 0.3 or higher is YES, anything lower is NO.

Worked examples follow.
• CCCNC(=O)OC[C@H]1O[C@H](CCON=C(C)CCC(=O)OC[C@H]2O[C@H](c3ccccc3)C=C[C@@H]2Oc2ccc(OC)cc2)C=C[C@@H]1Oc1ccc(OC)cc1 = NO
• CCOC(=O)[C@H](Cc1ccccc1)NC(=O)CCC1CC(OC(=O)NCCc2ccc(F)cc2)CC2(CCCC(COC(=O)NCc3ccccc3)O2)O1 (stereo not given in full) = YES
• CCCCc1nc2c(c3c1C[C@H](C)OC3)CN(CCOc1ccccc1)CC2 = YES
• CC(C)(C)N1C(=O)[C@H]2[C@H]3[C@H](O)[C@H](O)CC(=NOCc4ccccc4)[C@H]3CC[C@H]2C1=O = NO
• CO[C@@H]1C=CCC(=O)N2CCC[C@H]2C(=O)OC[C@@H](C)C(=O)OC[C@H]1C = YES
• C[C@@H](c1ccccc1)N1C(=O)[C@H]2[C@H]3[C@H](O)[C@H](O)CC(=NO[C@@H]4O[C@H](CO)[C@@H](O)[C@H](O)[C@H]4O)[C@@H]3CC[C@H]2C1=O = NO
• COC(=O)CC=C[C@@H](C)[C@@H](C=NOC[C@H]1O[C@H](c2ccccc2)C=C[C@@H]1Oc1ccc(OC)cc1)NS(=O)(=O)c1ccc(C)cc1 = NO
• COC(=O)[C@H]1O[C@@H](c2c(OC)c(OC)c(C)c(OC)c2OC)[C@H](C)[C@@H](O)[C@H]1C = YES

Q) composite z-score >= 0.3 for CO[C@H]1COC(=O)CCC[C@@H](C)[C@H](OC)COC(=O)[C@@H](C)NC(=O)CC=C[C@@H]1C ?
A) YES

Q) composite z-score >= 0.3 for COC(=O)CC=C[C@@H](C)[C@@H](C=NO[C@H](C)c1cn([C@@H]2COC[C@H]2O)nn1)NS(=O)(=O)c1ccc(C)cc1 ?
A) YES

Q) composite z-score >= 0.3 for COC(=O)CC=C[C@@H](C)[C@@H](C=NO[C@H](C)c1cn([C@H](CO)Cc2ccccc2)nn1)OC ?
A) YES

Q) composite z-score >= 0.3 for CON=C[C@@H](NS(=O)(=O)c1ccc(C)cc1)[C@H](C)C=CCC(=O)OC ?
A) NO

Q) composite z-score >= 0.3 for CCCNC(=O)OC[C@H]1O[C@H](CCON=C(C)C)C=C[C@@H]1Oc1ccc(OC)cc1 ?
A) YES

Q) composite z-score >= 0.3 for CCc1cc2c(nc1CC)CCN(CCC(C)=NO[C@H](C)c1cn([C@H](CO)Cc3ccccc3)nn1)C2 ?
A) YES

Q) composite z-score >= 0.3 for CCOC(=O)[C@H](Cc1ccccc1)NC(=O)CCC1CC(OC(=O)NCc2ccc3c(c2)OCO3)CC2(CCCC(COC(=O)NCCc3ccccc3OC)O2)O1 (stereo not given in full) ?
A) YES

Q) composite z-score >= 0.3 for CCN1C(=O)[C@H]2[C@H]3[C@H](O)[C@H](O)CC(=O)[C@@H]3CC[C@H]2C1=O ?
A) YES

Q) composite z-score >= 0.3 for C=COC[C@@H]1CN2[C@@H](CC[C@@H](C)[C@@H]2c2ccc(Br)cc2)C(=O)O1 ?
A) NO

Q) composite z-score >= 0.3 for CC=CC1=C(CO)C(=O)[C@@H]2O[C@@H]2C1=O ?
A) YES

Q) composite z-score >= 0.3 for CO[C@H]1COC(=O)[C@@H](C)COC(=O)[C@H](COCc2ccccc2)NC(=O)CC=C[C@H]1C ?
A) YES

Q) composite z-score >= 0.3 for C#CCCCON=C1C[C@@H](O)[C@@H](O)[C@@H]2[C@@H]3C(=O)N(CC)C(=O)[C@@H]3CC[C@@H]12 ?
A) NO

Q) composite z-score >= 0.3 for CO[C@H]1COC(=O)CCC[C@@H](C)[C@H](OC)COC(=O)[C@@H]2CCCN2C(=O)CC=C[C@@H]1C ?
A) YES

Q) composite z-score >= 0.3 for COc1ccc(COC(=O)NN=C2C[C@@H](O)[C@@H](O)[C@@H]3[C@@H]4C(=O)N(C5CCCCC5)C(=O)[C@@H]4CC[C@H]23)cc1 ?
A) NO

Q) composite z-score >= 0.3 for CCOC(=O)[C@H](CC(C)C)NC(=O)CCC1CC(OC(=O)NCCc2ccc(F)cc2)CC2(CCCC(COC(=O)NCCc3ccccc3OC)O2)O1 (stereo not given in full) ?
A) YES

Q) composite z-score >= 0.3 for CCOC(=O)[C@H](Cc1ccccc1)NC(=O)CCC1CC(OC(=O)NCCc2ccc(F)cc2)CC2(CCCC(COC(=O)NCCOC)O2)O1 (stereo not given in full) ?
A) YES

Q) composite z-score >= 0.3 for CO[C@H]1COC(=O)CC=C[C@@H](C)[C@H](NS(=O)(=O)c2ccc(C)cc2)COC(=O)CCC[C@@H]1C ?
A) YES

Q) composite z-score >= 0.3 for O=C1[C@H]2[C@H]3[C@H](O)[C@H](O)CC(=NO[C@@H]4O[C@H](CO)[C@@H](O)[C@H](O)[C@H]4O)[C@H]3CC[C@H]2C(=O)N1c1cccc(Oc2ccccc2)c1 ?
A) YES

Q) composite z-score >= 0.3 for O=C(NN=C1C[C@@H](O)[C@@H](O)[C@@H]2[C@@H]3C(=O)N(C[C@@H]4CCCO4)C(=O)[C@@H]3CC[C@@H]12)OCc1ccccc1 ?
A) YES

Q) composite z-score >= 0.3 for CCC1=NOC(CCC2CC(OC(=O)NCc3cccc4c3OCO4)CC3(CCCC(COC(=O)NCCc4ccccc4OC)O3)O2)C1 (stereo not given) ?
A) NO

Q) composite z-score >= 0.3 for CO[C@H]1COC(=O)[C@H](C)NC(=O)[C@@H](C)COC(=O)[C@H]2CCCN2C(=O)CC=C[C@H]1C ?
A) YES
